Catalogue of pIC50 values
Test system: MDA-MB-435 breast cancer cell line
Experiment: MTS cell toxicity assay, MDA-MB-435
Format: cell-based
Details: Homo sapiens, MDA-MD-435 (breast), 72 h drug incubation
pIC50: −log10 of the molar value.
READOUT: pIC50

COMPOUND | TARGET_UNDER_TEST | NUMBER
CCc1c2c(nc3ccc(OC(=O)N4CCC(N5CCCCC5)CC4)cc13)-c1cc3c(c(=O)n1C2)COC(=O)[C@]3(O)CC | MDA-MB-435 breast cancer cell line | 5.22
CCc1c2c(nc3ccc(O)cc13)-c1cc3c(c(=O)n1C2)COC(=O)[C@]3(O)CC [SN38, 7-ethyl-10-hydroxycamptothecin] | MDA-MB-435 breast cancer cell line | 8.52

----------
Tested on: HCT-116 colon cancer cell line
Test: MTS cell toxicity assay, HCT-116
Format: cell-based
Settings: Homo sapiens; HCT-116 (colon), 72 h drug incubation; read-out: IC50 values
pIC50: −log10 of the molar value.
READOUT: pIC50

MOLECULE | TARGET_UNDER_TEST | READOUT | NUMBER
CCc1c2c(nc3ccc(OC(=O)N4CCC(N5CCCCC5)CC4)cc13)-c1cc3c(c(=O)n1C2)COC(=O)[C@]3(O)CC | HCT-116 colon cancer cell line | pIC50 | 4.96
CCc1c2c(nc3ccc(O)cc13)-c1cc3c(c(=O)n1C2)COC(=O)[C@]3(O)CC [SN38, 7-ethyl-10-hydroxycamptothecin] | HCT-116 colon cancer cell line | pIC50 | 7.82

----------
Test system: HCT-116 colon cancer cell line
Assay: MTS cell toxicity assay, HCT-116
Assay type: cell-based
Details: Homo sapiens, HCT-116, 72 h, read-out: 50% growth inhibition concentration (IC50)
pIC50: −log10 of the molar value.

COMPOUND | pIC50
CCc1c2c(nc3ccc(OC(=O)N4CCC(N5CCCCC5)CC4)cc13)-c1cc3c(c(=O)n1C2)COC(=O)[C@]3(O)CC [CPT-11, irinotecan] | ~5.00
